Provenance of the data: patent US11339130B1

# measurementTarget: Human Calpain 9/NS1 (Homo sapiens)
# methodDescription: Calpain inhibition continuous fluorescence (FRET) assay, Human Calpain 9/NS1
# Format: biochemical
# experimentalConditions: Column C; read-out: Human Calpain 9/NS1 IC50
outcomeMeasure: IC50

Some solved entries appear below for comparison.
| compound | IC50 |
| --- | --- |
| NC(=O)C(=O)[C@H](Cc1ccccc1)NC(=O)c1scnc1-n1ncc2ccccc21 | < 3 µM |
| Cc1nc(-c2cccc(F)c2)c(C(=O)N[C@@H](Cc2ccccc2)C(=O)C(N)=O)o1 | < 3 µM |
| Cc1cc(C(=O)N[C@@H](Cc2ccccc2)C(=O)C(N)=O)n(-c2ncc(-c3ccccc3)s2)n1 | < 3 µM |
| CC(C)c1cccc(-c2nn(C)cc2C(=O)N[C@@H](Cc2ccccc2)C(=O)C(N)=O)c1 | < 3 µM |

Prompt: Would you kindly share the measured IC50 for "Cc1cc(C(=O)N[C@@H](Cc2ccccc2)C(=O)C(N)=O)n(-c2ccc(COCc3ccccc3)cc2)n1" ?
Response: < 3 µM

Prompt: What do you have for "COC(=O)NCc1cccc(-n2nc(C)cc2C(=O)N[C@@H](Cc2ccccc2)C(=O)C(N)=O)c1" ?
Response: < 3 µM

Prompt: # iterate: NC(=O)C(=O)C(Cc1ccccc1)NC(=O)c1ccn(Cc2ccccc2)n1 (centres unmarked)
Response: > 10 µM

Prompt: Also need "O=C(NC1CC1)C(=O)[C@H](Cc1ccccc1)NC(=O)c1cncn1-c1ncc(-c2ccccc2)cn1" , thanks.
Response: 3 to 10 µM

---

# System: Calpain activity in SH-SY5Y cells
# methodDescription: SH-SY5Y + AMC fluorescence assay (Suc-LLVY-AMC substrate)
# Type: cell-based
# experimentalConditions: read-out: SH-SY5Y + AMC IC50
pIC50: −log10 of the molar value.
outcomeMeasure: pIC50

Example entries and their recorded answers appear below.
| molecule | pIC50 |
| --- | --- |
| NC(=O)C(=O)C(Cc1ccccc1)NC(=O)c1cc(Br)nn1-c1ncccn1 (centres unmarked) | > 5.00 |
| Cc1cc(C(=O)NC(C=O)Cc2ccccc2)n(-c2ccc(C(F)(F)F)cn2)n1 (centres unmarked) | < 4.60 |
| NC(=O)C(=O)C(Cc1ccccc1)NC(=O)c1cn(C(F)F)nc1-c1ccccc1F (centres unmarked) | > 5.00 |

Prompt: Please look up its pIC50: NC(=O)C(=O)C(Cc1ccccc1)NC(=O)c1cn(C(F)F)nc1-c1ccc2ccccc2c1 (centres unmarked)
Response: < 4.60

Prompt: Now the molecule NC(=O)C(=O)C(Cc1ccccc1)NC(=O)c1cn(C(F)F)nc1-c1ccccc1 (centres unmarked)
Response: > 5.00

Prompt: Cn1cc(C(=O)NC(Cc2cc(F)cc(F)c2)C(=O)C(N)=O)c(-c2ccccc2F)n1 (centres unmarked) , same question.
Response: > 5.00

Prompt: And then NC(=O)C(=O)C(Cc1ccccc1)NC(=O)c1nsnc1-c1ccncn1 (centres unmarked) , what is it?
Response: > 5.00

Prompt: Would you kindly repeat that for Cn1cc(C(=O)NC(Cc2ccccc2)C(=O)C(N)=O)c(-c2cccc3ccccc23)n1 (centres unmarked) ?
Response: 4.60 to 5.00

Prompt: CC(C)n1cc(C(=O)NC(Cc2ccccc2)C(=O)C(N)=O)c(-c2ccccc2F)n1 (centres unmarked) , same question.
Response: > 5.00

Prompt: Repeat for the following molecule: NC(=O)C(=O)C(Cc1ccccc1)NC(=O)c1cn(C(F)(F)F)nc1-c1ccccc1 (centres unmarked)
Response: 4.60 to 5.00

Prompt: Try this molecule too: NC(=O)C(=O)C(Cc1ccccc1)NC(=O)c1nsnc1-c1ccncc1 (centres unmarked)
Response: > 5.00

Prompt: Next record, please: "CN(C)C(=O)CNC(=O)C(=O)[C@H](Cc1ccccc1)NC(=O)c1cn(C)nc1-c1ccccc1"
Response: > 5.00

Prompt: Try the molecule Cn1cc(C(=O)NC(Cc2ccccc2)C(=O)C(N)=O)c(-c2ccccc2Cl)n1 (centres unmarked)
Response: > 5.00

---

Form field: Interaction Distances P2-Gly190 (one value per entry).
# measurementTarget: human calpain 9 (Homo sapiens, UniProt O14815)
# Construct: human calpain 9, residues 27-347, was over expressed in E. coli BL21 (DE3); hexa-histidine (N); made in house; host or cells: E. coli BL21 (DE3)
# Sequence (O14815 27-347): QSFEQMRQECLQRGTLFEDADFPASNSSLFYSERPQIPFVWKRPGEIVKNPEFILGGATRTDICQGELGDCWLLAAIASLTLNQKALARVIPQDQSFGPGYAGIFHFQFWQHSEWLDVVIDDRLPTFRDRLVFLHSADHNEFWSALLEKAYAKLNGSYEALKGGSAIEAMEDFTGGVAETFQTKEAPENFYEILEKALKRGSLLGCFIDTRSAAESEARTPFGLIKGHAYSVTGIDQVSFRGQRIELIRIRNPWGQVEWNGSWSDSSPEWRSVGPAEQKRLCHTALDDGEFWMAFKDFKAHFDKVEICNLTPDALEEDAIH
# methodDescription: Calpain binding: crystal structure interaction distances, human calpain 9
# experimentalConditions: non-polar interactions with human calpain 9
For clarity, give the value followed by its unit.

| mol | result |
| --- | --- |
| Cn1cc(C(=O)N[C@@H](Cc2ccccc2)C(=O)C(N)=O)c(-c2ccccc2)n1 | 3.3 Å |
| CCCC[C@H](NC(=O)c1oc(C)nc1-c1ccccc1)C(=O)C(N)=O | 3.2 Å |
| NC(=O)C(=O)[C@H](Cc1ccccc1)NC(=O)c1nsnc1-c1ccccc1 | 3.0 Å |

Alright, here's another molecule for you.
Prompt: What value of Interaction Distances P2-Gly190 has been recorded for this entry: "NC(=O)C(=O)[C@H](Cc1ccccc1)NC(=O)c1snnc1-c1ccccc1"
Response: 3.0 Å

---

# measurementTarget: Human Calpain 9/NS1 (Homo sapiens, UniProt O14815)
# Sequence (O14815 whole entry): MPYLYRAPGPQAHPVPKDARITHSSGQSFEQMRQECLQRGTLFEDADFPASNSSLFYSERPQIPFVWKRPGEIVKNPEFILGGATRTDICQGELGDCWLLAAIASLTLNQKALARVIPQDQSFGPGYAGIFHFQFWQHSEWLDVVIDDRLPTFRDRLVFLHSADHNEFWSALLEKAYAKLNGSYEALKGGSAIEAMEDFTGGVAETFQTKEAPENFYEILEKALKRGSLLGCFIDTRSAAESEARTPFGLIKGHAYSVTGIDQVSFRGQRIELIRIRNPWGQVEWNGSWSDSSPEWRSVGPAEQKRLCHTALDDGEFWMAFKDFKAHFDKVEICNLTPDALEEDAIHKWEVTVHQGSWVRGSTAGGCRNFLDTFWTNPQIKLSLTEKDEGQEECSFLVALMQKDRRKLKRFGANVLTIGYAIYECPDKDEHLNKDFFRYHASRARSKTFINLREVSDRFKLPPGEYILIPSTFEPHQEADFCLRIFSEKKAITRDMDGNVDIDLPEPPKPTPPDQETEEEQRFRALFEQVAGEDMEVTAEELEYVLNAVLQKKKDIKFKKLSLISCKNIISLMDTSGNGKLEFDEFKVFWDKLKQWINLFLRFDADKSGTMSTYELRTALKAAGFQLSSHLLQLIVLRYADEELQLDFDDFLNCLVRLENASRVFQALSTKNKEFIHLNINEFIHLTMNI
# Sequence (P04632 whole entry partner): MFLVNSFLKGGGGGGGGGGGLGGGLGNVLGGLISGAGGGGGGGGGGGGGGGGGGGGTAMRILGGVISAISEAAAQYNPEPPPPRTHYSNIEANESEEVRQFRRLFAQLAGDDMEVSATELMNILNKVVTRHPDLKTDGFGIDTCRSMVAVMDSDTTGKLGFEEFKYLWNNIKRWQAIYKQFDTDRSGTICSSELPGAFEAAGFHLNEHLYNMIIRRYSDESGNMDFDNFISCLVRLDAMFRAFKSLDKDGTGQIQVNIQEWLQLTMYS
# methodDescription: Calpain inhibition continuous fluorescence (FRET) assay, Human Calpain 9/NS1
# Assay type: biochemical
# experimentalConditions: Column C; read-out: Human Calpain 9/NS1 IC50
IC50 for assorted molecules

| molecule | measurementTarget | result |
| --- | --- | --- |
| NC(=O)C(=O)[C@H](Cc1ccccc1)NC(=O)c1cncn1-c1nc2ccccc2[nH]1 [Compound 70] | Human Calpain 9/NS1 (Homo sapiens, UniProt O14815) | < 3 µM |

Prompt: Entry under review: Cc1noc(-c2ccccc2)c1C(=O)N[C@@H](Cc1c[nH]c2ccccc12)C(=O)C(N)=O [Compound 57] . Reported IC50?
Response: < 3 µM

Prompt: Thanks! And NC(=O)C(=O)C(Cc1ccccc1)NC(=O)c1c(Cl)cnn1-c1ccccc1 (stereo not shown) [Compound 280] ?
Response: < 3 µM

Prompt: Try this molecule next: Cc1cc(C(=O)N[C@@H](Cc2ccccc2)C(=O)C(N)=O)c(-c2ccccc2)o1 [Compound 118]
Response: < 3 µM

---

# measurementTarget: Human Calpain 1/NS1 (Homo sapiens)
# Sequence (P07384 whole entry): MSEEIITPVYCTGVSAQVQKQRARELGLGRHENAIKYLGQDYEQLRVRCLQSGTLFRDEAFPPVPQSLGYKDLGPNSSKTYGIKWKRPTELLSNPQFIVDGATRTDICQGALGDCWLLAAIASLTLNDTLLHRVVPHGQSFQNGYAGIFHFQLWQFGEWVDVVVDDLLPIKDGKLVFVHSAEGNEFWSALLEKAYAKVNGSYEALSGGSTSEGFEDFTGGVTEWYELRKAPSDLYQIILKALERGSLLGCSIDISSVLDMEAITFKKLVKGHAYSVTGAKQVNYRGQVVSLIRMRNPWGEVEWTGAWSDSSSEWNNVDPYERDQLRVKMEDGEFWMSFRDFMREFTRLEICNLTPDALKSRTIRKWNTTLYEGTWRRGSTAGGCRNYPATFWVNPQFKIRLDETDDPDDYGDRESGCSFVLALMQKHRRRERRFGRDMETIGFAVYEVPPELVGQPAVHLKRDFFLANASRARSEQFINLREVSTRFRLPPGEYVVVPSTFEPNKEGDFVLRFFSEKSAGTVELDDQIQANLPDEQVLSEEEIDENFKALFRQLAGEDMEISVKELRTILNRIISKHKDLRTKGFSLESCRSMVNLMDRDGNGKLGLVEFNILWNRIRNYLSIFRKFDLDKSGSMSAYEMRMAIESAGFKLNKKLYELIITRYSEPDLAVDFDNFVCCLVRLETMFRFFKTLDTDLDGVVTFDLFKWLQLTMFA
# Sequence (P04632 whole entry partner): as the sequence (P04632 whole entry partner) above
# methodDescription: Calpain inhibition continuous fluorescence (FRET) assay, Human Calpain 1/NS1
# Format: biochemical
# experimentalConditions: read-out: Human Calpain 1/NS1 IC50
pIC50: −log10 of the molar value.
Listing of recorded pIC50 by entry.

Completed entries (count: 6):
| molecule | result |
| --- | --- |
| NC(=O)C(=O)[C@H](Cc1ccccc1)NC(=O)c1cn(-c2ccccc2)nc1-c1ccccc1 [Compound 309] | > 5.52 |
| CC(C)C[C@H](NC(=O)c1cn(C)nc1-c1ccccc1)C(=O)C(N)=O [Compound 415] | > 5.52 |
| NC(=O)C(=O)[C@H](Cc1ccccc1)NC(=O)[C@@H]1CCCN1c1ccccc1 [Compound 308] | > 5.52 |
| Cc1cc(C(=O)NC(C=O)Cc2ccccc2)n(-c2ccccn2)n1 (centres unmarked) [Compound 398] | > 5.52 |
| NC(=O)C(=O)C(Cc1ccccc1)NC(=O)c1cn(C(F)F)nc1-c1ccccc1F (centres unmarked) [Compound 383] | > 5.52 |
| Cc1cc(C(=O)NC(Cc2ccccc2)C(=O)C(=O)NC2CC2)n(-c2ncccn2)n1 (centres unmarked) [Compound 455] | 5.00 to 5.52 |

Prompt: Quick one: pIC50 for CC[C@@H](C)[C@H](NC(=O)c1cn(C)nc1-c1ccccc1)C(=O)C(N)=O [Compound 333] ?
Response: > 5.52

Prompt: Next molecule: C#Cc1nccc(-n2nc(C)cc2C(=O)N[C@@H](Cc2ccccc2)C(=O)CF)n1 [Compound 433]
Response: 5.00 to 5.52

Prompt: Entry to check: Cc1ccc(F)cc1-c1oncc1C(=O)NC(Cc1ccccc1)C(=O)C(N)=O (centres unmarked) [Compound 558]
Response: > 5.52

Prompt: Next molecule up: Cc1nc(-c2cnc3ccccc3n2)c(C(=O)NC(Cc2ccccc2)C(=O)C(N)=O)o1 (centres unmarked) [Compound 356]
Response: > 5.52

Prompt: Also Cc1cccc(-c2nsnc2C(=O)NC(Cc2ccccc2)C(=O)C(N)=O)c1 (centres unmarked) [Compound 325] , if possible.
Response: > 5.52

Prompt: Input COc1ccc(C[C@H](NC(=O)c2cn(C)nc2-c2ccccc2)C(=O)C(N)=O)cc1 [Compound 420]
Response: > 5.52

Prompt: Field entry: Cc1cc(C(=O)N[C@@H](Cc2ccccc2)C(=O)CF)n(-c2ccccn2)n1 [Compound 478]
Response: > 5.52

Prompt: Entry NC(=O)C(=O)C(Cc1ccccc1)NC(=O)c1nsnc1-c1ccccn1 (centres unmarked) [Compound 373] please
Response: > 5.52

Prompt: Please do the same for C#CCOCc1ccc(-c2nn(C)cc2C(=O)N[C@@H](Cc2ccccc2)C(=O)CF)c(F)c1 [Compound 521] as well.
Response: > 5.52
